tested on: Raffaelea quercivora; test: Flat plate antifungal test (PDA medium); assay type: cell-based; details: Dryadomyces quercivorus; 1 ppm in PDA medium, 3 to 4 days at 25° C.; read-out: Inhibition rate of hyphal elongation
Reported inhibition at 1 ppm values are given for each entry in this list.
assay endpoint: inhibition at 1 ppm (%)

molecule | study system | assay endpoint | endpoint result
CCCCC(O)(Cn1cncn1)c1ccc(Cl)cc1Cl (centres unmarked) | Raffaelea quercivora | inhibition at 1 ppm | 33
CCCCC(C#N)(Cn1cncn1)c1ccc(Cl)cc1 (centres unmarked) | Raffaelea quercivora | inhibition at 1 ppm | 44
CC1(C)CCC(Cc2ccc(Cl)cc2)C1(O)Cn1cncn1 (centres unmarked) | Raffaelea quercivora | inhibition at 1 ppm | 97
FC(F)C(F)(F)OCC(Cn1cncn1)c1ccc(Cl)cc1Cl (centres unmarked) | Raffaelea quercivora | inhibition at 1 ppm | 60
CCCOC/C(=N\c1ccc(Cl)cc1C(F)(F)F)n1ccnc1 | Raffaelea quercivora | inhibition at 1 ppm | 96
